- Assay protocol: Lipid nanoparticle size and polydispersity by dynamic light scattering
- Type: physicochemical
- Settings: LNP of lipid/DSPC/cholesterol/PEG-lipid 50:10:38.5:1.5 encapsulating hEPO mRNA
- Method: Briefly, a cationic lipid provided herein, DSPC, cholesterol, and PEG-lipid were solubilized in ethanol at a molar ratio of 50:10:38.5:1.5, and mRNA were diluted in 10 to 50 mM citrate buffer, pH=4. […] Lipid nanoparticle size were determined by dynamic light scattering using a Malvern Zetasizer Nano ZS (Malvern UK) using a […] backscatter detection mode. […]
Readout type: polydispersity

INSERT INTO assay_data (compound, readout_type, test_result) VALUES
  ('CCCCCCCCCCCOC(=O)CCCCCN(CCN(CCO)CCCCCC(=O)C(CCCCCC)CCCCCCCCC)C1CCCCC1 (stereo not shown) [Compound 46]', 'polydispersity', 0.042),
  ('CCCCCCCCCCCC(=O)OCCCCCN(CCN(CCO)CCOCCOC(=O)CC(CCCCCCCC)CCCCCCCC)C1CCC1 [Compound 97]', 'polydispersity', 0.045);

P. CCCCCCCCC(CCCCCC)CNC(=O)CCCCCN(CCCCCO)CCN(CCCCC(COC(=O)CCCCCCC)COC(=O)CCCCCCC)C1CCCCCC1 (stereo not shown) [Compound 225]
Q. CCCCCCCCCCCCCCCCOC(=O)CCCCCN(CCN(CCO)CCCCCC(=O)OCC(CCCCCCCC)CCCCCCCC)C1CCCCCCC1 [Compound 131]
Among P and Q , which shows a numerically higher polydispersity result? The response must carry the label of the picked entry. Q

====

- Assay protocol: Apparent pKa of LNP formulations, TNS fluorescence assay
- Assay type: physicochemical
- Settings: LNP cationic lipid/DSPC/cholesterol/DMG-PEG 50/10/38.5/1.5 mol %
- Procedure: As reported in literature, the apparent pKa of LNP formulations correlates with the delivery efficiency of LNPs for nucleic acids in vivo. The apparent pKa of each formulation was determined using an assay based on fluorescence of 2-(p-toluidino)-6-napthalene sulfonic acid (TNS). […] A sigmoidal best fit analysis was applied to the fluorescence data and the pKa value was measured as the pH giving rise to half-maximal fluorescent intensity.
Readout type: Apparent Pka

INSERT INTO measurements (compound, readout_type, test_result) VALUES
  ('CCCCCCCCC(CCCCCCCC)COC(=O)CCCCCN(CCO)CCN(CCCCCC(=O)OCC(CCCCCCCC)CCCCCCCC)Cc1ccc([N+](=O)[O-])cc1 [Compound 38]', 'Apparent Pka', 6.253),
  ('CCCCCCCCC(CCCCCCCC)COC(=O)CCCCCN(CCO)CCN(CCCCC)CCCCCC(=O)OCC(CCCCCCCC)CCCCCCCC [Compound 124]', 'Apparent Pka', 5.997),
  ('CCCCCCCCC(CCCCCCCC)COC(=O)CCCCCN(C)CCN(CCCCCC(=O)OCC(CCCCCCCC)CCCCCCCC)CCNc1c(NC)c(=O)c1=O [Compound 79]', 'Apparent Pka', 6.914),
  ('CCCCCCCCCCCOC(=O)CCCCCN(CCN(CCO)CCCCCC(=O)C(CCCCCC)CCCCCCCCC)C1CCCCC1 (stereo not shown) [Compound 46]', 'Apparent Pka', 6.335),
  ('CCCCCCCCCCCC(=O)OCCCCCN(CCN(CCO)CCOCCOC(=O)CC(CCCCCCCC)CCCCCCCC)C1CCC1 [Compound 97]', 'Apparent Pka', 6.912),
  ('CCCCCCCCC(CCCCCCCC)CNC(=O)CCCCCN(CCCCN(CCO)CCCCC(COC(=O)CCCCCCC)COC(=O)CCCCCCC)C1CCC1 [Compound 186]', 'Apparent Pka', 7.617),
  ('CCCCCCCCC(CCCCCC)CNC(=O)CCCCCN(CCCCCO)CCN(CCCCC(COC(=O)CCCCCCC)COC(=O)CCCCCCC)C1CCCCCCC1 (stereo not shown) [Compound 210]', 'Apparent Pka', 6.49),
  ('CCCCCCCCC(CCCCCCCC)COC(=O)CCCCCN(CCC)CCN(CCO)CCCCCC(=O)OCC(CCCCCCCC)CCCCCCCC [Compound 32]', 'Apparent Pka', 6.378),
  ('CCCCCCCCC(CCCCCCCC)COC(=O)CCCCCN(CCO)CCN(CCCCCC(=O)OCC(CCCCCCCC)CCCCCCCC)C1CCC(F)(F)CC1 [Compound 66]', 'Apparent Pka', 6.009),
  ('CCCCCCCCC(CCCCCC)CNC(=O)CCCCCCN(CCO)CCN(CCCCC(COC(=O)CCCCCCC)COC(=O)CCCCCCC)C1CCCC1 (stereo not shown) [Compound 230]', 'Apparent Pka', 6.742),
  ('CCCCCCCC(=O)OCC(CCCCN1CCC(N(CCO)CCCCC(COC(=O)CCCCCCC)COC(=O)CCCCCCC)CC1)COC(=O)CCCCCCC [Compound 180]', 'Apparent Pka', 6.699),
  ('CCCCCCCC(=O)OCC(CCCCN(CCO)CCCCN(CCCCC(COC(=O)CCCCCCC)COC(=O)CCCCCCC)C(C)C)COC(=O)CCCCCCC [Compound 189]', 'Apparent Pka', 6.542),
  ('CCCCCCCCC(CCCCCCCC)CNC(=O)CCCCCN(CCO)CCN(CCCCCC(=O)NCC(CCCCCCCC)CCCCCCCC)C1CCCC1 [Compound 12]', 'Apparent Pka', 6.685);
